Kindly state growth for each of the entries shown.
# System: MALME-3M melanoma
# Test method notes: NCI-60 one-dose screen, 48 h (100 = growth as untreated, 0 = no growth, -100 = all killed)
# Assay context: 10 µM unless noted
About 83,000 compounds went through this panel and 20% of them were active in at least one assay; those are over-represented in the sample as a whole.
The response must be a number in % with no trailing unit.

# input molecule: O=C(O)CC(Br)C(=O)CBr (stereo not given) ; wanted: its growth
103

# input molecule: `O=[N+]([O-])c1ccc2cnn(CSP(=S)(c3ccccc3)c3ccccc3)c2c1` ; wanted: its growth
55.3

# input molecule: `Cc1cc(N(CCCl)CCCl)ccc1C=Nc1ccc2ccccc2c1` ; wanted: its growth
84.9

# input molecule: `CN=C(NN)NN` ; wanted: its growth
103

# input molecule: `N#[N+]c1nc2nc(N)[nH]c(=O)c2[nH]1` ; wanted: its growth
107

# input molecule: `CN(C)P1(N(C)C)=NP(N(C)C)(N(C)C)=NP(N(C)C)(N(C)C)=N1` ; wanted: its growth
106

# input molecule: `S=P(Nc1ccccc1)(Nc1ccccc1)c1ccccc1` ; wanted: its growth
142

# input molecule: O=CN1N=C(c2ccc3c(c2)OCO3)CC1c1sc(N(CCCl)CCCl)nc1Cl (stereo not given) ; wanted: its growth
106

# input molecule: `[Cl][Hg][n]1cnc2c(Cl)c(Cl)c(Cl)cc21` ; wanted: its growth
97.6

# input molecule: CC1CC=CCC12C(=O)NC(=S)NC2=O (stereo not given) ; wanted: its growth
105

# input molecule: `CC[C@@H](C)/C=C(C)/C=C/C(=O)c1c(O)c(-c2ccc(O)cc2)cn(O)c1=O` ; wanted: its growth
-7

# input molecule: `CC(=O)[O][Hg][c]1nc2c(c(=O)n(C)c(=O)n2C)n1C` ; wanted: its growth
49.8

# input molecule: `C=C=[CH][Sn]([c]1ccccc1)([c]1ccccc1)[c]1ccccc1` ; wanted: its growth
-36.6

# input molecule: `COC(C)(C)CCC[C@H](C)C/C=C/C(C)=C/C(=O)OC(C)C` ; wanted: its growth
85.9

# input molecule: CC1COC(=O)C1 (stereo not given) ; wanted: its growth
98.2

# input molecule: `C=CCC1(CC)C(=O)NC(=S)NC1=O` ; wanted: its growth
108

# input molecule: `CCOCC1(CCc2ccccc2)C(=O)NC(=S)NC1=O` ; wanted: its growth
138

# input molecule: COc1ccc(NP2(=O)OCC(C)(N)CO2)cc1 (stereo not given) ; wanted: its growth
97.3

# input molecule: `CCCCNCCc1ccccn1` ; wanted: its growth
101

# input molecule: `Nc1ccc(N)c2c1Oc1ccccc1O2` ; wanted: its growth
111

# input molecule: `CCN1CC2(CN(CC)C1=S)C(=O)NC(=O)NC2=O` ; wanted: its growth
103

# input molecule: `Nc1cccc(CC(=O)Nc2ccc(S(=O)(=O)F)cc2)c1` ; wanted: its growth
90

# input molecule: CN1CCN(C(=O)COc2ccc(/C=C3\CC4C5CC=C6CC(Cl)CCC6(C)C5CCC4(C)C3=O)cc2)CC1 (stereo not given) ; wanted: its growth
73.8

# input molecule: `O=C(CCCN1CCC2(CC1)C(=O)NCN2c1ccc(F)cc1)c1ccc(F)cc1` ; wanted: its growth
94.7

# input molecule: `Nc1cccc2c1Oc1ccccc1O2` ; wanted: its growth
97.3
